# protocol.details: qHTS assay to identify small molecule antagonists of the sonic hedgehog signaling (Shh) pathway (AID 1259369); note: nearly all actives have a fitted effect of over 45% in size
# condition.label: NIH/3T3 Gli1-Luc reporter, Shh antagonist, luminescence 24 h; series mostly up to 92.4 µM
Inconclusive results are not listed. Calls of active or inactive are those of the source. Calls come from the whole dose curve.
Returns: one label drawn from Y (active), N (inactive)

molecule: O=C(O)CCSCCC(=O)O
label.class: N
//
molecule: NC(CCC(=O)O)C(=O)O (centres undefined)
label.class: N
//
molecule: O=C(O)CNC(=O)c1ccccc1
label.class: N
//
molecule: CC(C)(C#N)Nc1nc(Cl)nc(NC2CC2)n1
label.class: Y
//
molecule: O=C(O)CC(C(=O)O)S(=O)(=O)O (centres undefined)
label.class: Y
//
molecule: C=CN1CCCCCC1=O
label.class: N
//
molecule: CC(C)(C)C(=O)c1ccccc1
label.class: N
//
molecule: O=C(c1ccccc1)C1(O)CCCCC1
label.class: N

Outcome? COc1cc(-c2ccc(=O)[nH]n2)ccc1OC(F)F
N

Same for O=C(O)Cc1csc(-c2ccc(Cl)cc2)n1
N

Same for CC(=O)c1cnccn1
N

Same for CCOC(=O)COc1cc(-n2ncc(C(F)(F)F)c(C)c2=O)c(F)cc1Cl
N

Same for Cc1ncc(COP(=O)(O)O)c(C=O)c1O
N

Same for O=C1NC(=O)C2CC=CCC12 (centres undefined)
N

---

# protocol.details: qHTS assay to test for compound auto fluorescence at 590 nm (red) in HEK293 cell free culture (AID 720683); note: % is set by controls: 0 for no effect and ±100 for the full control effect
# condition.label: cell-free medium autofluorescence, Ex540/Em590 red; series mostly up to 91.3 µM
Active and inactive are the calls of the source. Calls follow the shape of the dose curve; as a rule, active = well fitted curve in the direction sought with a large enough effect in the repeat runs; inconclusive = weak or mixed curves; inactive = flat fitted curve, though single readings scatter.
assay.readout: fluorescence, % of fluorescent control

Some entries whose results are on file:
compound: C[C@@H]1CCC[C@H](C)N1
fluorescence, % of fluorescent control: -0.545% [at 18.6 µM] (inactive)
//
compound: Nc1ccncc1N
fluorescence, % of fluorescent control: inactive
//
compound: CC(C)(C)C(=O)Oc1ccc(S(=O)(=O)Nc2ccccc2C(=O)NCC(=O)O)cc1
fluorescence, % of fluorescent control: inactive
//
compound: OCCc1ccccn1
fluorescence, % of fluorescent control: inactive
//
compound: C[N+]12CCC(CC1)C(OC(=O)C(O)(c1ccccc1)c1ccccc1)C2 (stereo unspecified)
fluorescence, % of fluorescent control: 0.0635% [at 18.6 µM] (inactive)
//
compound: NS(=O)(=O)Cc1noc2ccccc12
fluorescence, % of fluorescent control: inactive

Record request: fluorescence, % of fluorescent control value, item CN1CC(=O)N/C1=N/C(=O)Nc1cccc(Cl)c1
inactive

Same for NC(N)=NCCN1CCCCCCC1
-0.0086% [at 18.6 µM] (inactive)

Same for CC1(C)[C@@H]2CC[C@@]1(C)[C@H](O)C2
inactive

Same for CCN(CC#N)c1cccc(C)c1
inactive

Same for CCOC(=O)COc1cc(-n2ncc(C(F)(F)F)c(C)c2=O)c(F)cc1Cl
inactive

Same for CC(=O)NC(=O)c1ccccc1O
inactive

Same for c1ccc(Cc2ccccc2)cc1
inactive

Same for Nc1ccn([C@@H]2O[C@H](CO)[C@@H](O)C2(F)F)c(=O)n1
inactive

Same for CC(C)[C@H]1CC[C@@H](C)CC1=O
inactive

Same for CCOC(=O)c1cnc2c(cnn2CC)c1NN=C(C)C
inactive

---

# protocol.details: qHTS assay for small molecules that induce genotoxicity in human embryonic kidney cells expressing luciferase-tagged ATAD5 (AID 651632); note: nearly all actives have a fitted effect of over 15% in size; for activation: % is set by controls: 0 for no effect and ±100 for the full control effect
# condition.label: HEK293T ATAD5-luciferase induction, 16 h; series mostly up to 83.3 µM
Inconclusive results are not listed. The source made the active and inactive calls. Calls come from the whole dose curve; as a rule, active = well fitted activation curve with a large enough effect in the repeat runs; inconclusive = weak or mixed curves; inactive = no such curve, though single readings can be large or run the other way.
Returns: one label drawn from 1 = active, 0 = inactive

// known answers, use as guide
molecule: CCOCC(C)O (centres undefined)
label.class: 0

molecule: CCOC(=O)OC(C)OC1=C(C(=O)Nc2ccccn2)N(C)S(=O)(=O)c2ccccc21 (centres undefined)
label.class: 1

molecule: c1ccc(Cc2ccccc2)cc1
label.class: 0

Outcome? CN1CC(=O)N/C1=N/C(=O)Nc1cccc(Cl)c1
0

Same for CC[C@H]1OC(=O)[C@H](C)[C@@H](O[C@H]2C[C@@](C)(OC)[C@@H](O)[C@H](C)O2)[C@H](C)[C@@H](O[C@@H]2O[C@H](C)C[C@H](N(C)C)[C@H]2O)[C@](C)(OC)C[C@@H](C)C(=O)[C@H](C)[C@@H](O)[C@]1(C)O
0

Same for Nc1c2c(nc3c1CCC3)CCCC2
0

Same for CO/N=C(\C(=O)N[C@@H]1C(=O)N2C(C(=O)O)=C(CSc3nc(=O)c(O)nn3C)CS[C@H]12)c1csc(N)n1
0

Same for CCN1CCOCC1
0

Same for C[C@@H]1CCC[C@H](C)N1
0

---

# protocol.details: qHTS assay to identify small molecule antagonists of the vitamin D receptor (VDR) signaling pathway - cell viability counter screen (AID 743225); note: % is set by controls: 0 for no effect and ±100 for the full control effect; nearly all actives have a fitted effect of over 50% in size
# condition.label: VDR-bla HEK293T viability, CellTiter-Glo luminescence, 16 h; series mostly up to 61 µM
Inconclusive results are not listed. The source made the active and inactive calls. Calls come from the whole dose curve; as a rule, active = well fitted cell-killing curve with a large enough effect in the repeat runs; inconclusive = weak or mixed curves, or effect the other way; inactive = no such curve, though single readings can be large or run the other way.
assay.readout: viability change, negative = cytotoxic

Some entries whose results are on file:
molecule: CCCCOCCOC(=O)COc1cc(Cl)c(Cl)cc1Cl
viability change, negative = cytotoxic: inactive
--
molecule: CCCCN1C=CN(C)C1
viability change, negative = cytotoxic: inactive
--
molecule: CC(C)CC(C)(N)C#N (configuration not stated)
viability change, negative = cytotoxic: inactive
--
molecule: COc1ccnc(CS(=O)c2nc3cc(OC(F)F)ccc3[nH]2)c1OC (configuration not stated)
viability change, negative = cytotoxic: inactive
--
molecule: CCCO[Si](OCCC)(OCCC)OCCC
viability change, negative = cytotoxic: inactive

Record request: viability change, negative = cytotoxic value, item CC(C)CCCO
inactive

Same for CC1=NS(=O)(=O)c2cc(Cl)ccc2N1
inactive

Same for C=CN1CCCCCC1=O
inactive

Same for CC(=O)Oc1cccc(C)c1
inactive

Same for CCCCc1ccc2c(n1)[C@@H](c1ccc(OC)cc1C[C@H](C)C(=O)O)[C@H](C(=O)O)[C@H]2c1ccc2c(c1)OCO2
inactive

Same for Clc1cc(Cl)c(Cl)nc1Cl
inactive

Same for N[C@@H](CCC(=O)O)C(=O)O
inactive

Same for NS(=O)(=O)Cc1noc2ccccc12
inactive

---

# target.or.system: Cytochrome P450 1A2 (Homo sapiens)
# protocol.details: Cytochrome P450 Family 1 Subfamily A Member 2 (CYP1A2) small molecule antagonists: luciferase reporter qHTS assay (AID 1671199); note: nearly all actives have a fitted effect of over 50% in size
# condition.label: P450-Glo CYP1A2 enzyme, luciferin luminescence, 1 h; series mostly up to 53 µM
Records with an inconclusive call do not appear. Active and inactive are the calls of the source. The call rests on the fitted dose curve; in most records, active means well fitted inhibition curve with a large enough effect in the repeat runs; inconclusive means weak or mixed curves; inactive means no such curve, though single readings can be large or run the other way.
Returns: one label drawn from Y (active), N (inactive)

// known answers, use as guide
compound: CCCCCCCCCCCCCCC(=O)O
target.or.system: Cytochrome P450 1A2 (Homo sapiens)
label.class: Y
--
compound: CCC1C(=O)OCC1Cc1cncn1C (stereo not given)
target.or.system: Cytochrome P450 1A2 (Homo sapiens)
label.class: N
--
compound: Cc1ccc(C(=O)c2ccccc2)cc1
target.or.system: Cytochrome P450 1A2 (Homo sapiens)
label.class: Y

Outcome? CCCCCCCCCCCCCCCCCCO
N

Same for CC(C)CCCO
N

Same for CCN1C=CN(C)C1C (stereo not given)
N

Same for CC(C)(C#N)Nc1nc(Cl)nc(NC2CC2)n1
Y

Same for C=CC(=O)OCCCl
Y

Same for CCOC(=O)CCC(=O)OCC
N

Same for C=C(C)C(=O)OCC1CCCO1 (stereo not given)
N

---

# protocol.details: qHTS assay to identify small molecule agonists of the estrogen receptor alpha (ER-alpha) signaling pathway in the presence of an antagonist - cell viability counter screen (AID 1259386);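 note: cells exposed to compounds for 22 h at 37 °C before the viability read; % is set by controls: 0 for no effect and ±100 for the full control effect; nearly all actives have a fitted effect of over 30% in size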
# condition.label: VM7Luc4E2 viability, CellTiter-Fluor fluorescence, 22 h; series mostly up to 92.4 µM
Inconclusive results are not listed. The source made the active and inactive calls. Calls follow the shape of the dose curve; as a rule, active = well fitted cell-killing curve with a large enough effect in the repeat runs; inconclusive = weak or mixed curves, or effect the other way; inactive = no such curve, though single readings can be large or run the other way.
assay.readout: activity change, negative = cytotoxicity

compound: CCC1C(=O)OCC1Cc1cncn1C (centres undefined)
obs.value: inactive
--
compound: CCOC(=O)c1cnc2c(cnn2CC)c1NN=C(C)C
obs.value: inactive
--
compound: NC(N)=NCCN1CCCCCCC1
obs.value: 3.85% [at 0.349 µM] (inactive)
--
compound: N[C@H](C(=O)O)[C@@H](O)c1ccc(O)c(O)c1
obs.value: inactive

---

# target.or.system: Nuclear receptor subfamily 1 group I member 2 (Homo sapiens) (UniProt O75469)
# Sequence (O75469 whole entry, looked up): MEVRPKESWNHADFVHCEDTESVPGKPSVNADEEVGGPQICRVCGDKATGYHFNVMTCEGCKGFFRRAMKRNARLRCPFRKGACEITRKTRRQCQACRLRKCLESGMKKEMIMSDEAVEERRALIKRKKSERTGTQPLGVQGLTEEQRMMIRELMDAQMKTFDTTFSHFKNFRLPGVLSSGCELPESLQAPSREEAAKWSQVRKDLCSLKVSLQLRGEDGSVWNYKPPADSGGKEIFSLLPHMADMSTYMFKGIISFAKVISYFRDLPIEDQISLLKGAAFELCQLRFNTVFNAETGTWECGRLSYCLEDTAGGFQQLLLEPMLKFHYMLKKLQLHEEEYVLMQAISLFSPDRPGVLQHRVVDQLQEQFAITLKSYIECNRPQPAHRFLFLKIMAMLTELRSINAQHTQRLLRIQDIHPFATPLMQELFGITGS
# protocol.details: Human pregnane X receptor (PXR) small molecule agonists, qHTS assay (AID 1346982); note: nearly all actives have a fitted effect of over 35% in size; for activation: % is set by controls: 0 for no effect and ±100 for the full control effect
# condition.label: PXR-Luc HepG2, CYP3A4 luciferase reporter, 24 h; series mostly up to 92.4 µM
Records with an inconclusive call do not appear. Activity calls are given as the source filed them. Calls come from the whole dose curve; as a rule, active = well fitted activation curve with a large enough effect in the repeat runs; inconclusive = weak or mixed curves; inactive = no such curve, though single readings can be large or run the other way.
Returns: one label drawn from Y = active, N = inactive

compound: CC1(C)[C@@H]2CC[C@@]1(C)[C@H](O)C2
label.class: N

compound: C[N+](C)(C)CCCCCCCCCC[N+](C)(C)C
label.class: N

Outcome? O=Cc1cccc(Br)c1
N

Same for CCOC(=O)c1ccccc1
N

Same for O=C(O)CC(C(=O)O)S(=O)(=O)O (stereo not given)
N

Same for CCCCCCCCN1CCCC1=O
Y

Same for CNCC(O)c1ccc(O)c(O)c1 (stereo not given)
N

Same for Cc1ccccc1N=C(N)N=C(N)N
N

Same for CCCCCCC1CCC(=O)O1 (stereo not given)
N

Same for OCCc1ccccn1
N

Same for CC1CCC(CO)CC1 (stereo not given)
N
